The following molecules are shown together with reported inhibition at 1 µM values.
system: human μ opiate receptor (Homo sapiens)
test_description: human μ opiate receptor binding assay with [3H]-naloxone, CHO-K1 membrane preparation
test_conditions: read-out: Human ORm Nal inhibition [%]
Please respond with the number in % and leave the unit unwritten.

CN(C)C(c1ccc(F)cc1)c1ccc(C(=O)NC2CCCCC2)n1C.Cl (stereo not shown) [Example 1, hydrochloride] ... 62
CN(C)C(c1ccccc1)c1ccc(C(=O)NC2CCCCC2)n1C.Cl (stereo not shown) [Example 9, hydrochloride] ... 76
CCCCNC(=O)c1ccc(C(c2ccc(F)cc2)N(C)C)n1C.Cl (stereo not shown) [Example 2, hydrochloride] ... 49

Prompt line: Which inhibition at 1 µM value is on record for CN(C)C(c1ccc(Br)cc1)c1ccc(C(=O)NCCc2ccccc2)n1C.Cl (stereo not shown) [Example 7, hydrochloride] ?
Response line: 65

* * *

system: UniProt:P35372
test_description: human μ opiate receptor binding assay with [3H]-naloxone, CHO-K1 membrane preparation
test_conditions: [3H]-naloxone; from IC50 by the Cheng-Prusoff equation; read-out: Human ORm Nal Ki
measured_metric: Ki (nM)
Report the figure in nM without appending any unit label.

Prompt line: Dear colleague, I am looking for the recorded Ki of the following molecule: CN(C)C(c1ccc(Br)cc1)c1ccc(C(=O)NC2CCCCC2)n1C.Cl (centres unmarked) [Example 4, hydrochloride]
Response line: 790

Prompt line: Any idea what its Ki is? The molecule is CCCCNC(=O)c1ccc(C(c2ccc(F)cc2)N(C)C)n1C.Cl (centres unmarked) [Example 2, hydrochloride]
Response line: 360

* * *

system: human μ opiate receptor (Homo sapiens, UniProt P35372)
Sequence (P35372 whole entry): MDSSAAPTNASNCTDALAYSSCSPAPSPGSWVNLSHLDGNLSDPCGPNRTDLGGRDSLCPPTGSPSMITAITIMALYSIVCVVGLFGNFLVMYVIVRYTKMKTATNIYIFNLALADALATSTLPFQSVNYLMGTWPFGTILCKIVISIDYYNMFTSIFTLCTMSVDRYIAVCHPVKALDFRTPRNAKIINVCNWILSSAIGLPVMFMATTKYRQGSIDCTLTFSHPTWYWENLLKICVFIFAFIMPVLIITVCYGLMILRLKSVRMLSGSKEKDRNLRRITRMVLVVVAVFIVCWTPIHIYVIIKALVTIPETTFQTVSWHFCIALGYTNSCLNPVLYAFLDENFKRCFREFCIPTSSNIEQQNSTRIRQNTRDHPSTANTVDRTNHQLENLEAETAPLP
test_description: human μ opiate receptor binding assay with [3H]-naloxone, CHO-K1 membrane preparation
test_conditions: read-out: Human ORm Nal inhibition [%]
inhibition at 1 µM reference
Express it in %; write the number only.

Known inhibition at 1 µM results, listed for orientation:
CCCCNC(=O)c1ccc(C(c2ccc(Br)cc2)N(C)C)n1C.Cl (stereo not drawn) [Example 5, hydrochloride] ... 62
CN(C)C(c1ccccc1)c1ccc(C(=O)N2CCCC2)n1C.Cl (stereo not drawn) [Example 11, hydrochloride] ... 33

Let us examine a further case.
Prompt line: Query for human μ opiate receptor (Homo sapiens, UniProt P35372): what inhibition at 1 µM does the record show for CN(C)C(c1ccc(Br)cc1)c1ccc(C(=O)NC2CCCCC2)n1C.Cl (stereo not drawn) [Example 4, hydrochloride] ?
Response line: 80
